Each recorded value in this set is attributed to ChEMBL document CHEMBL5058577.

Tested on: U2OS
Assay: Multiplex assay against U2OS
Assay type: toxicity, cell-based
Conditions: human, 24 h, 10 µM, compound concentration 10 uM, replicate 1
measured.quantity: Population Tubulin-Different-Phenotype (%)
Answer in %, number only, no unit symbol.

Requested field: Population Tubulin-Different-Phenotype (%). Item: C=CCN1C[C@H](C(=O)N(CCCN(C)C)C(=O)NCC)C[C@@H]2c3cccc4[nH]cc(c34)C[C@H]21 [CABERGOLINE]
4

Could you tell me which Population Tubulin-Different-Phenotype (%) is on file for COc1ccc2c(c1OCc1ccccc1)C[C@@H](C(=O)O)N(C(=O)C(c1ccccc1)c1ccccc1)C2 [OLODANRIGAN] ?
1

Could you tell me which Population Tubulin-Different-Phenotype (%) is on file for CC(C)C[C@H](CO)Nc1nc(S[C@@H](C)c2ccccc2)nc2nc(N)sc12 [AZD-8797] ?
13

Query: Population Tubulin-Different-Phenotype (%); subject: Cc1cc(-c2ccc3c(c2)CC[C@H]3N2CC3(CCN(C(=O)Cc4cn5cc(C)sc5n4)CC3)C2)ncn1 [PF-5190457]
1

* * *

System: Fibroblast
Test: Multiplex assay against human fibroblast
Assay type: toxicity, cell-based
Details: 48 h, 1 µM, compound concentration 1 uM, replicate 2
Label satisfied when Population Mitotic Cells (%) < 60%; otherwise not satisfied.

Please let me know if CCC(=O)OCC(=O)[C@@]1(OC(=O)CC)[C@@H](C)C[C@H]2[C@@H]3CCC4=CC(=O)C=C[C@]4(C)[C@@]3(Cl)[C@@H](O)C[C@@]21C [BECLOMETHASONE DIPROPIONATE] shows Population Mitotic Cells (%) below 60%.
satisfied

Population Mitotic Cells (%) strictly < 60% for this compound? COc1cc2nc(N3CCN(C(=O)c4ccco4)CC3)nc(N)c2cc1OC.Cl [PRAZOSIN HYDROCHLORIDE]
satisfied

Threshold test, Population Mitotic Cells (%) < 60%: S=C(NCCCc1c[nH]cn1)NCCCN(Cc1ccc(Cl)c(Cl)c1)c1ccc(Br)cn1
not satisfied

Consider the compound C[C@@H]1CC(=O)Nc2cccc(-c3ccc4c(c3)c(-c3cnn(C)c3)nn4C)c2N1 . Is its Population Mitotic Cells (%) strictly less than 60%?
not satisfied

# check: Population Mitotic Cells (%) < 60% for OCCCNc1cc(-c2ccnc(Nc3cccc(Cl)c3)n2)ccn1
not satisfied

Does the reported Population Mitotic Cells (%) of CCCCCCNC(=O)Nc1ccc(S(=O)(=O)Nc2ccc(CCNC[C@H](O)COc3ccc(O)cc3)cc2)cc1 [L-755507] stay below 60%?
satisfied

Is Population Mitotic Cells (%) strictly under 60% for the entry COc1cc(OC2CCN(C(C)=O)CC2)ccc1C(=O)N1CCC(N2C(=O)OCc3ccccc32)CC1 ?
satisfied

* * *

Tested on: HEK-293T
Assay: Multiplex assay against HEK293T
Type: toxicity, cell-based
Conditions: human, 24 h, 10 µM, compound concentration 10 uM, replicate 1
measured.quantity: Population Healthy Nuclei (%)
Return type: number; implicit unit %.

Test system HEK-293T; read-out Population Healthy Nuclei (%); what value for Cc1nn(C)c2nc(NNC(=O)Nc3cc(Cl)nc(Cl)c3)cc(C(C)C)c12 ?
66

Notebook: pull reported Population Healthy Nuclei (%) for HEK-293T, entry Nc1nc(-c2ccco2)c2cnn(Cc3ccccc3F)c2n1
67

Query for HEK-293T: what Population Healthy Nuclei (%) does the record show for O=c1nc2[nH]c3ccccc3nc-2c(=O)[nH]1 ?
77

Lookup: Population Healthy Nuclei (%) / HEK-293T / CCC(=O)OCC(=O)[C@@]1(OC(=O)CC)[C@@H](C)C[C@H]2[C@@H]3CCC4=CC(=O)C=C[C@]4(C)[C@@]3(Cl)[C@@H](O)C[C@@]21C [BECLOMETHASONE DIPROPIONATE]
65
